All values here come from ChEMBL document CHEMBL1201862.

- System: HL-60
- Experiment: NCI tumour cell line growth inhibition, 48 h
Activity calls are given as the source filed them. No stated cut-off is given here; in the data, active = GI50 up to about 1.1 µM and inactive = higher.
Here the recorded GI50 is given for each entry.
Assay Readout: GI50

>>> observed_measurement("Cc1ccc2c3c1O[C@H]1c4[nH]c5ccccc5c4C[C@@]4(O)[C@@H](C2)N(C)CC[C@]314")
"14.6 µM (inactive)"
>>> observed_measurement("COC(=O)C1=C(C(=O)OC)C2(CCCCCC2=O)OC1=O (stereo not given)")
"> 100 µM (inactive)"
>>> observed_measurement("Cc1c(C)c(C)c(CSC(=N)N)c(C)c1C")
"8.57 µM (inactive)"
>>> observed_measurement("Nc1nc(Cl)cc(NCC2(CO)CCCC2)n1")
"> 100 µM (inactive)"
>>> observed_measurement("CC(=O)O[C@H]1CC[C@@]2(C)C(=CC[C@@H]3[C@@H]2CC[C@]2(C)c4c(cc(C#N)c(=N)n4C(C)=O)C[C@@H]32)C1")
"14.6 µM (inactive)"

* * *

- System: MDA-MB-435
- Experiment: NCI tumour cell line growth inhibition, 48 h
Calls of active or inactive are those of the source. Cut-off read from the data, not from the text of the source: active = GI50 up to about 1.1 µM and inactive = higher.
Assay Readout: GI50

>>> observed_measurement("O=C(O)CCSc1ncnc2[nH]cnc12")
"> 100 µM (inactive)"
>>> observed_measurement("CC(C)(CCCCC(C)(C)C1NC(=O)N1)C1NC(=O)N1")
"> 10 µM (inactive)"
>>> observed_measurement("N#C[BH2-][n+]1cn(C2CC(O)C(COP(=O)(O)OC3CC(n4cnc5c(=O)[nH]c(N)nc54)OC3CO)O2)c2nc(N)[nH]c(=O)c21 (stereo not drawn)")
"> 100 µM (inactive)"

* * *

- Tested on: MDA-N
- Experiment: NCI tumour cell line growth inhibition, 48 h
Calls of active or inactive are those of the source. Cut-off read from the data, not from the text of the source: active = GI50 up to about 1.1 µM and inactive = higher.
Item-by-item account of GI50
Assay Readout: GI50

>>> observed_measurement("COc1cc(C2SCC(=O)N2c2ccc(Cl)cc2)cc(OC)c1OC (stereo unspecified)")
"3.05 µM (inactive)"
>>> observed_measurement("CN(C)CCCn1c(Cc2ccc(Cl)cc2)nc2cc(C(F)(F)F)ccc21")
"12 µM (inactive)"
>>> observed_measurement("Cn1c([N+](=O)[O-])cnc1CN1CCN(CCO)CC1")
"> 100 µM (inactive)"
>>> observed_measurement("C[C@]12C[C@H](c3ccccc3)Nc3ccccc3N1C(c1ccccc1)=NO2")
"74.1 µM (inactive)"
>>> observed_measurement("COc1ccccc1/C=N/Nc1nnc2c3ccccc3c3ncccc3c2n1")
"> 100 µM (inactive)"
>>> observed_measurement("CC(CN(C)C)C(=O)c1ccccc1C(=O)O (stereo unspecified)")
"29.5 µM (inactive)"
>>> observed_measurement("CC[C@@]1(C[C@H]2C[C@@]3(C(=O)OC)c4[nH]c5ccccc5c4CCN3C2=O)COC2(CCCCC2)O1")
"43.2 µM (inactive)"
>>> observed_measurement("O=C(N[C@H]1c2ccsc2/C(=N/O)[C@H]1O)C(F)(F)F")
"> 100 µM (inactive)"
>>> observed_measurement("CC(=O)OC12CC(C(F)(F)F)(C(F)(F)F)OC1(OC(C)=O)CC(C(F)(F)F)(C(F)(F)F)O2 (stereo unspecified)")
"5.92 µM (inactive)"
>>> observed_measurement("CC(C)(CCCCC(C)(C)C1NC(=O)N1)C1NC(=O)N1")
"> 10 µM (inactive)"
>>> observed_measurement("C=C1C[C@@H](O)[C@@H](Br)C(C)(C)[C@]12CCC(C)(Br)C(Cl)C2 (stereo partly specified)")
"> 50 µM (inactive)"
>>> observed_measurement("Cn1c(=O)c2c(nc3sc4ncccc4c(=O)n32)n(C)c1=O")
"> 100 µM (inactive)"
>>> observed_measurement("O=C(/N=N/c1cccc(Cl)c1)NNc1cccc(Cl)c1")
"13.1 µM (inactive)"
>>> observed_measurement("CCCCCCCCCCCCCCCCOP(=O)(O)OP(=O)(O)OCC1OC(n2ccc(N)nc2=O)C(O)C1O (stereo unspecified)")
"> 100 µM (inactive)"
>>> observed_measurement("Cc1ccc2c3c1O[C@H]1c4[nH]c5ccccc5c4C[C@@]4(O)[C@@H](C2)N(C)CC[C@]314")
"17.8 µM (inactive)"
>>> observed_measurement("c1ccc(COCC23CCN(Cc4ccccc4)C(CC(OCc4ccccc4)C2)S3)cc1 (stereo unspecified)")
"50.9 µM (inactive)"
>>> observed_measurement("COc1cc(=O)n2c3ccccc3n(C)c2c1C#N")
"> 100 µM (inactive)"
>>> observed_measurement("CC1(C)CC(=O)C(CCC(=O)/C=C/c2ccccc2)C(=O)C1")
"> 100 µM (inactive)"
>>> observed_measurement("CC1CCCC2=C1C(c1ccc(Cl)cc1)n1c(s/c(=C\\c3ccc(Cl)cc3)c1=O)=N2 (stereo unspecified)")
"> 100 µM (inactive)"
>>> observed_measurement("CCOC(=O)c1c(SCCN2CCOCC2)n(-c2ccccc2)c(=S)n(-c2ccccc2)c1=O")
"36.5 µM (inactive)"
>>> observed_measurement("N#Cc1nc(C#N)c(NC(=O)c2ccccc2C(=O)O)[nH]1")
"> 100 µM (inactive)"

* * *

- Test system: SF-268
- Experiment: NCI tumour cell line growth inhibition, 48 h
Activity calls are given as the source filed them. Cut-off read from the data, not from the text of the source: active = GI50 up to about 1.1 µM and inactive = higher.
Assay Readout: GI50

>>> observed_measurement("COc1ccc(Nc2nc(NNC(=O)Cc3ccccc3)nc(NNC(=O)c3ccncc3)n2)cc1")
"> 10 µM (inactive)"
>>> observed_measurement("O=C(NC(=O)c1ccccc1)OC(c1ccccc1)C1CO1 (configuration not stated)")
"> 100 µM (inactive)"
>>> observed_measurement("C/C(=N\\Nc1nc2ccccc2s1)c1cccc[n+]1[O-]")
"36.2 µM (inactive)"
>>> observed_measurement("CC(C)(C)[Si](C)(C)Oc1ccc(C2CNC(=O)C23CCC(=O)N3Cc2ccccc2)cc1 (configuration not stated)")
"12.6 µM (inactive)"
>>> observed_measurement("CCCCCCCCCCCc1c(O)c(=O)c2c(oc3c(=O)c(CCCCCCCCCCC)c(O)c(=O)c3n2-c2ccc(N(C)C)cc2)c1=O")
"22.2 µM (inactive)"
>>> observed_measurement("CN(C)CCCn1c(Cc2ccc(Cl)cc2)nc2cc(C(F)(F)F)ccc21")
"14.1 µM (inactive)"
>>> observed_measurement("ClCCCN1CCCCC1CCl (configuration not stated)")
"53.2 µM (inactive)"
>>> observed_measurement("CS(=O)(=O)Nc1ccc2c(c1)oc(=O)c1ccccc12")
"13.3 µM (inactive)"
>>> observed_measurement("O=c1[nH]c2ccccc2c(=O)n1/N=C/c1ccc(O)cc1")
"42.2 µM (inactive)"
>>> observed_measurement("CC(C)(C)NC(=O)/C(=C\\Sc1ccccc1)c1ccc2c(c1)OCO2")
"16.2 µM (inactive)"
>>> observed_measurement("O=C1NC2=NN=C(c3ccc(Br)cc3)CN2NC12c1ccccc1-c1ccccc12")
"> 100 µM (inactive)"
>>> observed_measurement("CCOc1ccnc2c(OC)c(C)c3nc4ccccc4nc3c12")
"> 100 µM (inactive)"
>>> observed_measurement("C/C(=N\\O)c1cccc[n+]1Cc1ccccc1")
"> 100 µM (inactive)"
>>> observed_measurement("Cc1cc(C)cc(Nc2nnc3n2S(=O)(=O)c2cc(C)c(Cl)cc2S3)c1")
"3.81 µM (inactive)"
>>> observed_measurement("O=C1C(Cl)=C(Cl)C(=O)N1c1ccc(F)cc1 [FLUOROIMIDE]")
"28.8 µM (inactive)"
>>> observed_measurement("Cc1ccc(S(=O)(=O)OC2=C/C(=N\\c3onc(C)c3C)c3ccccc3C2=O)cc1")
"23.7 µM (inactive)"
>>> observed_measurement("O=c1cc2n(c(=O)[nH]1)C1OC(C(O)C1O)[C@@H]2CCO (some centres not stated)")
"> 100 µM (inactive)"
>>> observed_measurement("COCN/C(N)=N/C#N")
"85.9 µM (inactive)"
>>> observed_measurement("O=C1c2ccccc2C(=O)C1C(c1ccc(F)cc1)C1C(=O)c2ccccc2C1=O")
"> 100 µM (inactive)"
>>> observed_measurement("CCCCC[C@@H]1CCCC2NC(CCCCCO[Si](c3ccccc3)(c3ccccc3)C(C)(C)C)CCC21 (some centres not stated)")
"17.9 µM (inactive)"
>>> observed_measurement("Cc1c(C(=O)C/C(=N/NC(=O)c2ccccc2)C(=O)Nc2ccc(Cl)cc2)[n+]([O-])c2ccccc2[n+]1[O-]")
"> 100 µM (inactive)"
>>> observed_measurement("COc1cc2cc(C(=O)N3CC(CCl)c4ccc([N+](=O)[O-])cc43)[nH]c2c(OC)c1OC (configuration not stated)")
"> 100 µM (inactive)"

* * *

- Tested on: SNB-75
- Experiment: NCI tumour cell line growth inhibition, 48 h
Calls of active or inactive are those of the source. No stated cut-off is given here; in the data, active = GI50 up to about 1.1 µM and inactive = higher.
Classes used: 1 for active, -1 for inactive

>>> class_label("N#CC(NNC(=O)c1ccccc1O)c1ccccc1 (stereo not given)")
1
>>> class_label("O=C(O)c1ccccc1C(=O)NCC1S(=O)(=O)OCCOS1(=O)=O")
-1
>>> class_label("COc1ccc(Oc2cccc(C3C4C(=O)N(c5ccc(C)c(Cl)c5)C(=O)C4ON3C(C(N)=O)c3ccccc3)c2)cc1 (stereo not given)")
-1
>>> class_label("c1ccc(COCC23CCN(Cc4ccccc4)C(CC(OCc4ccccc4)C2)S3)cc1 (stereo not given)")
-1
>>> class_label("COc1cc2c(cc1OC)C1Cc3cc(OC)c(OC)cc3C(C2)O1")
-1
>>> class_label("O=C(O)CC(NC(=O)C(F)(F)F)C(=O)NC1Cc2ccccc2OC1=O (stereo not given)")
-1
>>> class_label("COc1cc2c(cc1O)C1CC(CC3CCCCN31)OC(=O)/C=C\\c1ccc(O)c-2c1 (stereo not given)")
-1
>>> class_label("O=C(/C=C/c1ccccc1)NC1C=Nc2ccc(Cl)cc2NC1=O (stereo not given)")
-1
>>> class_label("CC1CC2OC(=O)C(C)C2CC2(C)C(OC3OC(CO)C(O)C(O)C3O)OCCC12 (stereo not given)")
-1
>>> class_label("n1onc2c1NC1Nc3nonc3NC1N2 (stereo not given)")
-1
